Form field: Hemolytic rate, 50 μg/mL (one value per entry).
# System: sheep red blood cells
# SETUP_CONDITIONS: 50 μg/mL peptide; sheep red blood cells in PBS, 37°C, 1 h, OD576, relative to melittin; mean ± SD, three repeats
Where a SMILES comes first, the peptide text is derived from it.
Enter your answer as a number in %; do not include the unit.

Worked examples follow.
CC[C@H](C)[C@H](NC(=O)[C@H](CCCNC(=N)N)NC(=O)[C@H](CCCNC(=N)N)NC(=O)[C@H](Cc1ccccc1)NC(=O)[C@@H](CC(C)C)NC(=O)[C@H](CCCNC(=N)N)NC(=O)[C@@H](N)CCCNC(=N)N)C(=O)N[C@@H](CC(C)C)C(=O)N[C@@H](CCCNC(=N)N)C(=O)N[C@@H](Cc1c[nH]c2ccccc12)C(=O)N[C@@H](CC(C)C)C(N)=O [RW-BP100-3D] (HELM PEPTIDE1{R.R.[dL].F.R.R.I.L.R.W.L.[am]}$$$$V2.0)	3.49
CC[C@@H](C)[C@@H](NC(=O)[C@H](CCCNC(=N)N)NC(=O)[C@H](CCCNC(=N)N)NC(=O)[C@H](Cc1ccccc1)NC(=O)[C@H](CC(C)C)NC(=O)[C@H](CCCNC(=N)N)NC(=O)[C@@H](N)CCCNC(=N)N)C(=O)N[C@@H](CC(C)C)C(=O)N[C@@H](CCCNC(=N)N)C(=O)N[C@@H](Cc1c[nH]c2ccccc12)C(=O)N[C@@H](CC(C)C)C(N)=O [RW-BP100-7D] (HELM PEPTIDE1{R.R.L.F.R.R.[dI].L.R.W.L.[am]}$$$$V2.0)	0.53

Now for the compound whose Hemolytic rate, 50 μg/mL we want.
Noted for CC[C@H](C)[C@H](NC(=O)[C@@H](CCCNC(=N)N)NC(=O)[C@H](CCCNC(=N)N)NC(=O)[C@H](Cc1ccccc1)NC(=O)[C@H](CC(C)C)NC(=O)[C@H](CCCNC(=N)N)NC(=O)[C@@H](N)CCCNC(=N)N)C(=O)N[C@@H](CC(C)C)C(=O)N[C@@H](CCCNC(=N)N)C(=O)N[C@@H](Cc1c[nH]c2ccccc12)C(=O)N[C@@H](CC(C)C)C(N)=O [RW-BP100-6D] (HELM PEPTIDE1{R.R.L.F.R.[dR].I.L.R.W.L.[am]}$$$$V2.0) : its Hemolytic rate, 50 μg/mL reads 2.33

---

# System: Escherichia coli ATCC25922
# SETUP_CONDITIONS: Table 1; broth microdilution CLSI M100-S25, MH broth, 37°C, 18 h, three independent repeats
Where a SMILES comes first, the peptide text is derived from it.
A collection of compounds and their measured MIC Escherichia coli ATCC25922
Numbers only; they are read as µg/mL.

Example entries begin here.
CC[C@H](C)[C@H](NC(=O)[C@H](CCCNC(=N)N)NC(=O)[C@H](CCCNC(=N)N)NC(=O)[C@H](Cc1ccccc1)NC(=O)[C@H](CC(C)C)NC(=O)[C@@H](CCCNC(=N)N)NC(=O)[C@@H](N)CCCNC(=N)N)C(=O)N[C@@H](CC(C)C)C(=O)N[C@@H](CCCNC(=N)N)C(=O)N[C@@H](Cc1c[nH]c2ccccc12)C(=O)N[C@@H](CC(C)C)C(N)=O [RW-BP100-2D] (HELM PEPTIDE1{R.[dR].L.F.R.R.I.L.R.W.L.[am]}$$$$V2.0)	12
CC[C@H](C)[C@H](NC(=O)[C@H](CCCNC(=N)N)NC(=O)[C@H](CCCNC(=N)N)NC(=O)[C@H](Cc1ccccc1)NC(=O)[C@H](CC(C)C)NC(=O)[C@H](CCCNC(=N)N)NC(=O)[C@@H](N)CCCNC(=N)N)C(=O)N[C@@H](CC(C)C)C(=O)N[C@@H](CCCNC(=N)N)C(=O)N[C@H](Cc1c[nH]c2ccccc12)C(=O)N[C@@H](CC(C)C)C(N)=O [RW-BP100-10D] (HELM PEPTIDE1{R.R.L.F.R.R.I.L.R.[dW].L.[am]}$$$$V2.0)	50

Then this compound:
Just so you know, measured MIC Escherichia coli ATCC25922 for CC[C@H](C)[C@H](NC(=O)[C@H](CCCNC(=N)N)NC(=O)[C@H](CCCNC(=N)N)NC(=O)[C@H](Cc1ccccc1)NC(=O)[C@H](CC(C)C)NC(=O)[C@H](CCCNC(=N)N)NC(=O)[C@@H](N)CCCNC(=N)N)C(=O)N[C@H](CC(C)C)C(=O)N[C@@H](CCCNC(=N)N)C(=O)N[C@@H](Cc1c[nH]c2ccccc12)C(=O)N[C@@H](CC(C)C)C(N)=O [RW-BP100-8D] (HELM PEPTIDE1{R.R.L.F.R.R.I.[dL].R.W.L.[am]}$$$$V2.0) came out at 12

---

Known Hemolytic rate, 150 μg/mL of a selection of compounds
# Test system: sheep red blood cells
# SETUP_CONDITIONS: 150 μg/mL peptide; sheep red blood cells in PBS, 37°C, 1 h, OD576, relative to melittin; mean ± SD, three repeats
Where a SMILES comes first, the peptide text is derived from it.
Answer with a number only, understood to be in %.

CC[C@H](C)[C@H](NC(=O)[C@H](CCCNC(=N)N)NC(=O)[C@@H](CCCNC(=N)N)NC(=O)[C@H](Cc1ccccc1)NC(=O)[C@H](CC(C)C)NC(=O)[C@H](CCCNC(=N)N)NC(=O)[C@@H](N)CCCNC(=N)N)C(=O)N[C@@H](CC(C)C)C(=O)N[C@@H](CCCNC(=N)N)C(=O)N[C@@H](Cc1c[nH]c2ccccc12)C(=O)N[C@@H](CC(C)C)C(N)=O [RW-BP100-5D] (HELM PEPTIDE1{R.R.L.F.[dR].R.I.L.R.W.L.[am]}$$$$V2.0)	29.72

The value of Hemolytic rate, 150 μg/mL measured for the compound CC[C@H](C)[C@H](NC(=O)[C@H](CCCNC(=N)N)NC(=O)[C@H](CCCNC(=N)N)NC(=O)[C@@H](Cc1ccccc1)NC(=O)[C@H](CC(C)C)NC(=O)[C@H](CCCNC(=N)N)NC(=O)[C@@H](N)CCCNC(=N)N)C(=O)N[C@@H](CC(C)C)C(=O)N[C@@H](CCCNC(=N)N)C(=O)N[C@@H](Cc1c[nH]c2ccccc12)C(=O)N[C@@H](CC(C)C)C(N)=O [RW-BP100-4D] (HELM PEPTIDE1{R.R.L.[dF].R.R.I.L.R.W.L.[am]}$$$$V2.0) turned out to be 18.75

---

# System: sheep red blood cells;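 further: hemolysis expressed in % from supernatant absorbance, with PBS-treated cells as 0% baseline and melittin as 100%, peptide mixed 1:1 with an 8% v/v erythrocyte suspension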
# SETUP_CONDITIONS: 150 μg/mL peptide; sheep red blood cells in PBS, 37°C, 1 h, OD576, relative to melittin; mean ± SD, three repeats
Where a SMILES comes first, the peptide text is derived from it.
Recorded Hemolytic rate, 150 μg/mL values for a group of compounds are listed next.
Field: numeric (%). Do not append units.

Study these solved cases before continuing.
CC[C@H](C)[C@H](NC(=O)[C@@H](CCCNC(=N)N)NC(=O)[C@H](CCCNC(=N)N)NC(=O)[C@H](Cc1ccccc1)NC(=O)[C@H](CC(C)C)NC(=O)[C@H](CCCNC(=N)N)NC(=O)[C@@H](N)CCCNC(=N)N)C(=O)N[C@@H](CC(C)C)C(=O)N[C@@H](CCCNC(=N)N)C(=O)N[C@@H](Cc1c[nH]c2ccccc12)C(=O)N[C@@H](CC(C)C)C(N)=O [RW-BP100-6D] (HELM PEPTIDE1{R.R.L.F.R.[dR].I.L.R.W.L.[am]}$$$$V2.0)	32.57
CC[C@@H](C)[C@@H](NC(=O)[C@H](CCCNC(=N)N)NC(=O)[C@H](CCCNC(=N)N)NC(=O)[C@H](Cc1ccccc1)NC(=O)[C@H](CC(C)C)NC(=O)[C@H](CCCNC(=N)N)NC(=O)[C@@H](N)CCCNC(=N)N)C(=O)N[C@@H](CC(C)C)C(=O)N[C@@H](CCCNC(=N)N)C(=O)N[C@@H](Cc1c[nH]c2ccccc12)C(=O)N[C@@H](CC(C)C)C(N)=O [RW-BP100-7D] (HELM PEPTIDE1{R.R.L.F.R.R.[dI].L.R.W.L.[am]}$$$$V2.0)	16.17

The reported Hemolytic rate, 150 μg/mL value, sheep red blood cells, for CC[C@H](C)[C@H](NC(=O)[C@H](CCCNC(=N)N)NC(=O)[C@H](CCCNC(=N)N)NC(=O)[C@H](Cc1ccccc1)NC(=O)[C@H](CC(C)C)NC(=O)[C@H](CCCNC(=N)N)NC(=O)[C@@H](N)CCCNC(=N)N)C(=O)N[C@@H](CC(C)C)C(=O)N[C@@H](CCCNC(=N)N)C(=O)N[C@H](Cc1c[nH]c2ccccc12)C(=O)N[C@@H](CC(C)C)C(N)=O [RW-BP100-10D] (HELM PEPTIDE1{R.R.L.F.R.R.I.L.R.[dW].L.[am]}$$$$V2.0) reads 19.20

# lookup: CC[C@H](C)[C@H](NC(=O)[C@H](CCCNC(=N)N)NC(=O)[C@H](CCCNC(=N)N)NC(=O)[C@H](Cc1ccccc1)NC(=O)[C@H](CC(C)C)NC(=O)[C@H](CCCNC(=N)N)NC(=O)[C@@H](N)CCCNC(=N)N)C(=O)N[C@@H](CC(C)C)C(=O)N[C@H](CCCNC(=N)N)C(=O)N[C@@H](Cc1c[nH]c2ccccc12)C(=O)N[C@@H](CC(C)C)C(N)=O [RW-BP100-9D] (HELM PEPTIDE1{R.R.L.F.R.R.I.L.[dR].W.L.[am]}$$$$V2.0) on sheep red blood cells, Hemolytic rate, 150 μg/mL = 18.14

Field Hemolytic rate, 150 μg/mL (system: sheep red blood cells) for entry CC[C@H](C)[C@H](NC(=O)[C@H](CCCNC(=N)N)NC(=O)[C@H](CCCNC(=N)N)NC(=O)[C@H](Cc1ccccc1)NC(=O)[C@H](CC(C)C)NC(=O)[C@@H](CCCNC(=N)N)NC(=O)[C@@H](N)CCCNC(=N)N)C(=O)N[C@@H](CC(C)C)C(=O)N[C@@H](CCCNC(=N)N)C(=O)N[C@@H](Cc1c[nH]c2ccccc12)C(=O)N[C@@H](CC(C)C)C(N)=O [RW-BP100-2D] (HELM PEPTIDE1{R.[dR].L.F.R.R.I.L.R.W.L.[am]}$$$$V2.0) = 39.16

All figures here come from paper PMC8822125.
